# assay.target: FKBP F36I (Homo sapiens, UniProt P62942, F37I)
# Construct: made in house
# protocol.text: Competitive Binding FP Assay, F36I mutant FKBP
Where a name gives a salt, the structure may show the parent alone.
Assignment: determine reported pIC50 for the given molecules.
Give bare numbers, as −log10 of the molar value.

molecule: CC[C@H](C(=O)N1CCCC[C@H]1C(=O)O[C@H](CCc1cccnc1)c1cccc(OCC(=O)O)c1)c1cc(OC)c(OC)c(OC)c1 [AP14252, hydrochloride]
readout.type: pIC50
observed.value: 8.17

Provide the reported pIC50 of each entry below, same order.
1. CC[C@H](C(=O)N1CCCC[C@H]1C(=O)O[C@H](CCc1ccc(OC)c(OC)c1)c1cccc(OCC(=O)O)c1)c1cc(OC)c(OC)c(OC)c1
2. CC[C@H](C(=O)N1CCCC[C@H]1C(=O)O[C@H](CCN1CCOCC1)c1cccc(OCC(=O)O)c1)c1cc(OC)c(OC)c(OC)c1

8.29
7.49
